Please provide measured GI50 for the entries that follow.
- System: OVCAR-4
- protocol-description: NCI tumour cell line growth inhibition, 48 h
Calls of active or inactive are those of the source. Cut-off read from the data, not from the text of the source: active = GI50 up to about 1.1 µM and inactive = higher.

Reported GI50 for Cc1cc2nc3c(=O)[nH]c(=O)nc-3n(CC(O)C(O)C(O)CO)c2cc1N (centres undefined) was > 100 µM (inactive)

Reported GI50 for COc1cc2nc(-c3cccs3)[nH]c(=O)c2cc1OC was > 100 µM (inactive)

Reported GI50 for CC(C)[C@H](O)C(=O)N[C@H]1Cc2ccc3c(c2)[C@]24C5=C(N=C(O5)[C@H](C(C)C)NC1=O)c1nc(Cl)c(o1)-c1c(Cl)[nH]c5cccc(c15)-c1cccc2c1N[C@H]4O3 was 1.57 µM (inactive)

Reported GI50 for NC(=O)c1c(-c2ccccc2)c(-c2ccccc2)cc2c(=O)c3ccccc3[nH]c12 was 12.5 µM (inactive)

Reported GI50 for Cc1cc(NS(=O)(=O)c2ccc(NC(=O)c3cccc4c(NNc5ccc(S(N)(=O)=O)cc5)c5ccccc5nc34)cc2)no1 was 31.8 µM (inactive)

Reported GI50 for COC(=O)CP1(=O)OC2C(C3CCC2(C)C3(C)C)N1c1cc(C(F)(F)F)cc(C(F)(F)F)c1 (centres undefined) was 13.5 µM (inactive)

Reported GI50 for COc1cc(C=O)ccc1Oc1nnnn1-c1ccccc1 was 50.9 µM (inactive)

Reported GI50 for Nc1nc(N)c(Cn2ccnc2)c(O)n1 was > 100 µM (inactive)

Reported GI50 for NC(=S)N/N=C(/CCN1CCCC1)CC(C1=C(O)C2=CCCCC2OC1=O)c1ccccc1 (centres undefined) was > 100 µM (inactive)

Reported GI50 for Cc1cn(C2CC(Br)C(COC(c3ccccc3)(c3ccccc3)c3ccccc3)O2)c(=O)[nH]c1=O (centres undefined) was 13 µM (inactive)

Reported GI50 for Cc1c(-c2nc(N)c(C#N)c(N)c2C#N)c(=O)oc2ccccc12 was > 100 µM (inactive)

Reported GI50 for CC(=O)NC1=C(NC(C)(C)C)C(=O)c2ccccc2C1=O was 20.1 µM (inactive)

Reported GI50 for Nc1ncnc2c1nnn2C1C=CC(CP(=O)(O)O)C1 (centres undefined) was > 100 µM (inactive)

Reported GI50 for COc1ccccc1N1C(=O)/C(=C\c2cc(OC)c(OC)c(OC)c2)S(=O)(=O)C1c1ccccc1 (centres undefined) was 39.9 µM (inactive)

// provenance: ChEMBL document CHEMBL1201862
